FYI, the data here is from patent US20130209454A1.

Target: HIV-1 strain SC422661.8 envelope (gp120) (HIV-1)
Assay: cell-based or functional assay
OBSERVED PROPERTY: neutralization IC50
Please state the value followed by its unit.

Lab note: 3BNC117 IgG (antibody, V domains shown) VH: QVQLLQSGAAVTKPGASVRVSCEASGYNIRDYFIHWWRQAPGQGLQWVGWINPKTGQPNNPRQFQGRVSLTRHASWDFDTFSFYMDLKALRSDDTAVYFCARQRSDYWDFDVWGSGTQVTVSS VL: DIQMTQSPSSLSASVGDTVTITCQANGYLNWYQQRRGKAPKLLIYDGSKLERGVPSRFSGRRWGQEYNLTINNLQPEDIATYFCQVYEFVVPGTRLDLKRTVA gave neutralization IC50 of 0.07 µg/mL
